These entries and their values trace back to patent US20250170248A1.

STUDY_SYSTEM: SMARCA4 (Homo sapiens)
Construct: SMARCA2/SMARCA4 protein degradation selectivity in MV4-11 cells; endogenous in cells; host or cells: MV4-11
Sequence (P51532 whole entry): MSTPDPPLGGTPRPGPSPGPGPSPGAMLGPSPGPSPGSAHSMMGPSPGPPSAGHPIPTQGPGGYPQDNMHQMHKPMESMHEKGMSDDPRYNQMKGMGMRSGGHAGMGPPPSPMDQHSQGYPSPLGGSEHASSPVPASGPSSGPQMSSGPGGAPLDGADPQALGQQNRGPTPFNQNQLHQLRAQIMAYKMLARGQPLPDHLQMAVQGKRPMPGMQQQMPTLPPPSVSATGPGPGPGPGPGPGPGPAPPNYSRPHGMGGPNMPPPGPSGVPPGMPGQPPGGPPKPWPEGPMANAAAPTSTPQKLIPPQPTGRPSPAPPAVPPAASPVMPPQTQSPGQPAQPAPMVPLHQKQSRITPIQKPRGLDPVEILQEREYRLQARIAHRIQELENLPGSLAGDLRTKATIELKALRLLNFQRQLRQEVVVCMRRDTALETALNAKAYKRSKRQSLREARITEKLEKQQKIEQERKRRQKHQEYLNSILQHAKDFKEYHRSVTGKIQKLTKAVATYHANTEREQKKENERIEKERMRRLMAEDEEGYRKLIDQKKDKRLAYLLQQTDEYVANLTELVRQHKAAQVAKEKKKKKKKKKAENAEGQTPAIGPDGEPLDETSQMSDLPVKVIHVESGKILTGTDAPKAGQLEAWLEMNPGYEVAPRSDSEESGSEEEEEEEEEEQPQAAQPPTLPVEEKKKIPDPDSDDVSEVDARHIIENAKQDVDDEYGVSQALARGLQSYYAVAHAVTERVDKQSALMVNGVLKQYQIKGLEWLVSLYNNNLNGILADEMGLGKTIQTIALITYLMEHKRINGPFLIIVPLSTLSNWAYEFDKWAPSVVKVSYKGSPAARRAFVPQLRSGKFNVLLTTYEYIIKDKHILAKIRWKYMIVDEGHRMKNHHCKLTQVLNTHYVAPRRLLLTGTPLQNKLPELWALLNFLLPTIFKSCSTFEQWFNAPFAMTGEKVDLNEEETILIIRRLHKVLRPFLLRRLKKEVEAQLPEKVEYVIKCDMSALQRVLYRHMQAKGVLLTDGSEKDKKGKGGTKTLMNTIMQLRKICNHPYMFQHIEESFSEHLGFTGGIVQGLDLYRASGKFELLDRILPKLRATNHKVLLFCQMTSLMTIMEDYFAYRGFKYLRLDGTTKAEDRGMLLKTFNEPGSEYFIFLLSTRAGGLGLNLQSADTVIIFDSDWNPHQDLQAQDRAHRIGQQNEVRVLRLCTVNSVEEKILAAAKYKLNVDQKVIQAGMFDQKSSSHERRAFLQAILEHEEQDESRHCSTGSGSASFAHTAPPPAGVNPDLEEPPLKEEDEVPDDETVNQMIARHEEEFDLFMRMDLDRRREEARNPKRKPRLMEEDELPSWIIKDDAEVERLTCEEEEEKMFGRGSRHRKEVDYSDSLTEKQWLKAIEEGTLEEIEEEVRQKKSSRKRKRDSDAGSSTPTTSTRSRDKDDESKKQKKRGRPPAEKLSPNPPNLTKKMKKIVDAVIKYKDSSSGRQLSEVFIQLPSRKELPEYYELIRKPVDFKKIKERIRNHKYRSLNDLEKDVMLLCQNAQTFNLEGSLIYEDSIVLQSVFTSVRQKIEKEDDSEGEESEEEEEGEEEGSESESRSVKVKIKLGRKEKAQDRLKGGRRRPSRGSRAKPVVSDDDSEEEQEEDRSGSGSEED
EXPERIMENTAL_PROTOCOL: SMARCA4 Western blot degradation in MV4-11 cells
Assay type: cell-based
PARTICULARS: MV4-11 cells, 24 h; read-out: SMARCA4 MSD MV411 degradation 24 h: Mean external-Abs DC50
Assignment: determine reported DC50 for the given molecules.

Use the examples below as a reference point.
Ask | Report DC50 for Cc1ncsc1-c1ccc(CNC(=O)[C@@H]2C[C@@H](O)CN2C(=O)[C@@H](NC(=O)C2(F)CC2)C(C)(C)C)c(OCCN2CCC(c3cnc(N4CCN5c6cc(-c7ccccc7O)nnc6NC[C@H]5C4)nc3)CC2)c1 (single isomer, unassigned) [I-32] please.
Reply | 1 to 10 nM

Ask | Can you check C#Cc1ccc(CNC(=O)[C@@H]2C[C@@H](O)CN2C(=O)[C@@H](NC(=O)[C@H]2CC[C@H](CN3CCC(c4cnc(N5CCN6c7cc(-c8ccccc8O)nnc7NC[C@H]6C5)nc4)CC3)CC2)C(C)(C)C)cc1 [I-294] next?
Reply | 10 to 100 nM

Ask | Try this molecule next: C#Cc1ccc([C@H](C)NC(=O)[C@@H]2C[C@@H](O)CN2C(=O)[C@@H](OC(=O)N2CC3(CC(N4CCC(c5cnc(N6CCc7[nH]c8nnc(-c9ccccc9O)cc8c7[C@H]6C)nc5)CC4)C3)C2)C(C)(C)C)cc1 [I-150]
Reply | > 100 nM

# evaluate next
Ask | Endpoint output: DC50 of Cc1cc(Cl)ccc1C#CCNC(=O)[C@@H]1C[C@@H](O)CN1C(=O)[C@@H](NC(=O)[C@H]1CCC2(CC1)C[C@H](N1CCC(c3cnc(N4CCN5c6cc(-c7ccccc7O)nnc6NC[C@H]5C4)nc3)CC1)C2)C(C)(C)C (single isomer, unassigned) [I-104] . Value?
Reply | > 100 nM

* * *

STUDY_SYSTEM: SMARCA2 (Homo sapiens)
Sequence (P51531 whole entry): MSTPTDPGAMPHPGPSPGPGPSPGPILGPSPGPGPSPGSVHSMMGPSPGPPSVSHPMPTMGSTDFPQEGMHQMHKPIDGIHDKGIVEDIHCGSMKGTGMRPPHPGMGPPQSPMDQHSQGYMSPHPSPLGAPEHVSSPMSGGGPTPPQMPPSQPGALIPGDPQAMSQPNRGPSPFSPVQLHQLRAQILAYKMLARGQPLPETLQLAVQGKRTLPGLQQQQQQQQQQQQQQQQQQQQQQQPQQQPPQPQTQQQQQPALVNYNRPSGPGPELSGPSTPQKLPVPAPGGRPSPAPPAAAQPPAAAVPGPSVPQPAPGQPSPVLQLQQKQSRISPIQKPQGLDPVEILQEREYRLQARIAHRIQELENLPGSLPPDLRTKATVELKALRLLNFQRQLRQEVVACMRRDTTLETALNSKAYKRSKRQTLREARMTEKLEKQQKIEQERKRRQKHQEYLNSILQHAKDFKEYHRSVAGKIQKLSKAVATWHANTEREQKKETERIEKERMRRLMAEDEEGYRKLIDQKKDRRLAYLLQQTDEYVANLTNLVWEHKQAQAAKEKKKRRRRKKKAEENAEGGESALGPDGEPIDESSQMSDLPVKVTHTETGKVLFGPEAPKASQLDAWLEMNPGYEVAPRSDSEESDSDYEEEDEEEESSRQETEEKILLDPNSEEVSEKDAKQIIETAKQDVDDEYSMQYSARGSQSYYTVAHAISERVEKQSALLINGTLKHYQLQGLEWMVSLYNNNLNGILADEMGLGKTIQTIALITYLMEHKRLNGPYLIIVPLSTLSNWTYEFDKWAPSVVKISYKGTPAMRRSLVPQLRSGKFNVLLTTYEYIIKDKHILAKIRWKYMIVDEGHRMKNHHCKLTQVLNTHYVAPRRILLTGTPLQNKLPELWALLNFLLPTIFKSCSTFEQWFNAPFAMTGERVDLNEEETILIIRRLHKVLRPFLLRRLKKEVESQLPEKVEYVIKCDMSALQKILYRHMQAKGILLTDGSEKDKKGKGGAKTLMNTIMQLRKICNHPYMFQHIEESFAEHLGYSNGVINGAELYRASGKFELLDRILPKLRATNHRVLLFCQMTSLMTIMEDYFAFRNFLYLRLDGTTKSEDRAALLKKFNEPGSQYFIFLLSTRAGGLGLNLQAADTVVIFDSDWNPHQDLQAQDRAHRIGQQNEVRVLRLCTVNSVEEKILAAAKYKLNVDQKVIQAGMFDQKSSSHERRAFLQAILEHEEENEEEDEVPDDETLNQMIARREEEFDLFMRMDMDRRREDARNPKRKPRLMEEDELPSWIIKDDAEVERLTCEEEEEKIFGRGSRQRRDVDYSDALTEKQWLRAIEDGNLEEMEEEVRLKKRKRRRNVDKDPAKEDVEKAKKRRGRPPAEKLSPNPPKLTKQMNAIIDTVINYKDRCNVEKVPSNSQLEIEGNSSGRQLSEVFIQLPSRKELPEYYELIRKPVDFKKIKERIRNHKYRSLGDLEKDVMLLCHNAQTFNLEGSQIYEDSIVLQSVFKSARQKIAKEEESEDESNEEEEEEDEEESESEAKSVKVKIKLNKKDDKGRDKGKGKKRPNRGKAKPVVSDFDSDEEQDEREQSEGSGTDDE
EXPERIMENTAL_PROTOCOL: MSD SMARCA2 degradation in A549 cell line
Assay type: cell-based
PARTICULARS: A549 cells, 24 h, read-out: SMARCA2 MSD A549 degradation 24 h: Average external-Abs DC50
Procedure: Example 10. MSD SMARCA2 Degradation in A549 Cell Line Cells were seeded into 96-well plates (A549 cells: 2×10^4 cells/well/100 ul media) and incubated overnight. […] The MSD plate was washed three times with 150 uL/well of TBST and 150 ul/well of 2× MSD reading buffer diluted from 4× (MSD, R92TC-2) with water was added. Lastly, the MSD instrument was read. […]
MEASURED_METRIC: DC50

Answered cases to consult:
Ask | Need DC50 of C#Cc1ccc([C@H](C)NC(=O)[C@@H]2C[C@@H](O)CN2C(=O)[C@@H](NC(=O)[C@H]2CC3(C2)C[C@H](N2CCC(N4CCC(N5CCN6c7cc(-c8ccccc8O)nnc7NC[C@H]6C5)CC4)CC2)C3)C(C)(C)C)cc1 (single isomer, unassigned) [I-213] , thanks.
Reply | > 0.1 µM

Ask | Please do the same for Cc1cc(F)ccc1C#CCNC(=O)[C@@H]1C[C@@H](O)CN1C(=O)[C@@H](NC(=O)[C@H]1CCC2(CC1)C[C@H](N1CCC(c3cnc(N4CCN5c6cc(-c7ccccc7O)nnc6NC[C@H]5C4)nc3)CC1)C2)C(C)(C)C (stereo partly drawn) [I-115] as well.
Reply | > 0.1 µM

// next item, DC50 requested
Ask | Can you look up the measured DC50 of C#Cc1ccc(CNC(=O)[C@@H]2C[C@@H](O)CN2C(=O)[C@@H](NC(=O)[C@H]2CCC3(CC2)C[C@H](N2CCC(N4CCC(N5CCN6c7cc(-c8ccccc8O)nnc7NC[C@H]6C5)CC4)CC2)C3)C(C)(C)C)c(OC)c1 (single isomer, unassigned) [I-177] for me?
Reply | > 0.1 µM
